Origin of the recorded values: patent US20220112288A1

# target of assay: T1, huCD4-HIS (human, UniProt P01730 26-390, limits assumed)
# T1 construct: not shown: HIS tag
# test name: ELISA binning; competitor ibalizumab; 100 ng/mL huCD4-HIS, anti-HIS HRP detection; background 45, max binding 3000000
measure name: Ibalizumab ELISA binning signal
Number only, please.

Please give the measured Ibalizumab ELISA binning signal for this binder: 75110_04K10A (antibody, V domains shown, Tested here as non-clonal hybridoma supernatant from AlivaMab Mouse Kappa mice (detected with anti-mouse Fc and anti-human kappa)) VH: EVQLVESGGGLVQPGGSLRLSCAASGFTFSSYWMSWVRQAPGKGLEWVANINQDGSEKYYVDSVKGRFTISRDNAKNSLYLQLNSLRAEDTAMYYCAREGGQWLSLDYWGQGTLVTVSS VL: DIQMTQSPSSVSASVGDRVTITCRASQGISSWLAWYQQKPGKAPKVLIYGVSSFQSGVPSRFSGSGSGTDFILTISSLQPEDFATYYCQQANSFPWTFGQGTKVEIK
1.13e+06
